# tested-target: T1, Vibrio maritimus FtsA residues 1-396 (VmFtsA^1-396) (Vibrio maritimus)
# T1 chain: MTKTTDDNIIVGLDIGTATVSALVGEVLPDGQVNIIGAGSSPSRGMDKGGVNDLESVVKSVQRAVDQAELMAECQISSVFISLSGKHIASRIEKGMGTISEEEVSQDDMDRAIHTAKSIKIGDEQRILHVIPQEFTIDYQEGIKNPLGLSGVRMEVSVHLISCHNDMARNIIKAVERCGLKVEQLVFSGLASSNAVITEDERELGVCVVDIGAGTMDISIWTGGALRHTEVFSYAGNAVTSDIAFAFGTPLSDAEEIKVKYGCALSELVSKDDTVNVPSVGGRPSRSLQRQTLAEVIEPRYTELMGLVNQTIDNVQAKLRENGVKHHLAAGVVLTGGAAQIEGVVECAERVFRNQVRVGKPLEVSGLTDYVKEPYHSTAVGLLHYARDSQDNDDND
# measurement-description: FP; two-step model, first transition (FtsN binding)
assay-endpoint: Kd (nM)
Answer in nM, number only, no unit symbol.

Data request: Specify Kd for MANRDYVRRGKGTSRRPAKKKTSGKKPWRC (Atto 495 (maleimide) on the added C-terminal cysteine) [VmFtsN^1-29-C-Atto 495] and stop.
Data returned: 62
